Tested on: G-401 tumor spheroids, viability % test/control
TEST METHOD NOTES: Anticancer human tumor G-401 cell line growth inhibition;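 further: spheroids exposed to compound for 7 days; 100% = DMSO vehicle-treated spheroids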
MEASUREMENT SETUP: second compound 10 µM; first compound 0.316 µM; hits give low values; spheroids with HUVEC and MSC
# 1 (yes) = viability, T/C below 90% (exclusive); 0 (no) = viability, T/C at/above 90%

Worked cases, answers included:
CC(C)n1c(=O)n(C)c2cnc3cc(F)c(-c4ccc(OCCCN5CCCCC5)nc4)cc3c21 + Cn1nnc2c(C(N)=O)ncn2c1=O ... 0 (no)
Cc1cc(C)c(CNC(=O)c2cc(-c3ccc(CN4CCOCC4)cc3)cc3c2cnn3C2CCCC2)c(=O)[nH]1 + Cn1nnc2c(C(N)=O)ncn2c1=O ... 0 (no)

State whether 90% exceeds viability, T/C recorded for [2H]c1nc(C)nc([2H])c1-c1cc(NC[C@@H](C)c2cccc3c(C(=O)NC)ccnc23)ncn1 + Cn1nnc2c(C(N)=O)ncn2c1=O . 0 (no)

Hello, I'm reviewing records and need to know if viability, T/C of CC1COCCN1c1cc(-c2ccnn2C)c2ccnc(-c3ccn[nH]3)c2n1 (stereo unspecified) + Cn1nnc2c(C(N)=O)ncn2c1=O is below 90%. Could you check? 1 (yes)

Record COc1cc(C)[nH]c(=O)c1CN1CCc2c(Cl)cc(C(OC)C3COC3)c(Cl)c2C1=O (stereo unspecified) + Cn1nnc2c(C(N)=O)ncn2c1=O : is its viability, T/C strictly below 90%? 1 (yes)

These measurements were taken from PubChem BioAssay AID1845203.
